# protocol details: qHTS Primary assay for Inhibitors of Plasmodium falciparum Dd2 growth in vitro; further: nearly all actives have a fitted effect of over 65% in size
# experimental context: P. falciparum Dd2 growth, SYBR Green, 72 h; series mostly up to 28.9 µM
In all, about 120,000 compounds went through this assay and about 5,300 (4.4%) were called active. Not shown: some 22% with an inconclusive outcome. The call rests on the fitted dose curve; in most records, active means well fitted inhibition curve with a large enough effect; inconclusive means small, poorly fitted or top-dose-only effect; inactive means no such curve, though single readings can be large or run the other way. The list comes from a sample in which actives are over-represented; it also holds close analogues and randomly drawn compounds.
Outcomes: active, inactive

> print(dat)
                                    compound  label.value
 1  Cc1ccc(CCNC(=O)c2ccc3c(c2)nc2n3CCC(C)C2)cc1 (stereo not given)     inactive
 2  O=C(c1ccc(F)cc1)N1CCCC(c2nn(-c3cccc(Cl)c3)c(=O)[nH]2)C1 (stereo not given)     inactive
 3  CNC(=O)[C@@H]1CN(C(=O)C2CC=CCC2)C[C@H]1c1nc(C)no1 (stereo not given in full)     inactive
 4  COc1cccc(CC(=O)N2CCC(c3nc(CCOc4ccc(F)cc4)no3)C2)c1 (stereo not given)     inactive
 5  Cc1nn(Cc2ccccc2)c(C)c1[C@@H]1C=C[C@@H](NC(=O)NC2CCCCC2)C1     inactive
 6  Cc1ccc(C2(O)CCN(C(=O)c3ccccc3-c3nn[nH]n3)CC2)nc1     inactive
 7  O=C(C1CCCO1)N1CCC2(CC1)NCCc1c2[nH]c2ccccc12 (stereo not given)     inactive
 8  CCc1nc2c(=O)n(CC(=O)NCc3ccc(Cl)cc3)nc(C)c2s1     inactive
 9  CCN1CCN(C(=O)C23CCCC=C2N(C2CCCC2)C(=O)CC3)CC1 (stereo not given)     inactive
10  CCOC(=O)c1c(C)[nH]c(CCC(=O)NCCCN2CCN(c3cccc(Cl)c3)CC2)c1C     inactive
11  COCCOCC(=O)N1CCC2(CC1)NCCc1c2[nH]c2ccccc12     inactive
12  Cc1nn(Cc2ccccc2)c(C)c1[C@@H]1C=C[C@@H](NC(=O)NC(C)C)C1     inactive
13  Cc1ccc(CN2C(=O)[C@@H]3C[C@@H](O)CN3C3(CN(Cc4ccncc4)C3)C2=O)o1     inactive
14     CCCNC(=O)c1ccc2c(c1)ncn2-c1ccc(C)cc1C       active
15  Cc1ccc(C)c(N2CCN(CCCNC(=O)Nc3ccc(Cl)cc3)CC2)c1       active
16  Cc1n[nH]c(C)c1CCC(=O)N[C@@H]1CN(S(C)(=O)=O)C[C@H]1CN(C)C     inactive
17  O[C@@H]1C[C@@H](c2nc(Cc3ccc(F)cc3Cl)no2)N(Cc2ncc[nH]2)C1     inactive
18  O=C(COc1ccc(F)cc1)N1CCC2(CC1)NCCc1c2[nH]c2ccccc12       active
19  Cc1ccc(-c2nc(N3CCOCC3)cc3c2CN(Cc2cnn(C)c2)C3=O)cn1     inactive
20          Cn1nccc1CN1CC(Oc2ccc(F)c(F)c2)C1     inactive
21  O=C(NCc1ccncc1)C1CN(S(=O)(=O)c2cccnc2)CC12CCOCC2 (stereo not given)     inactive
22  COc1ccc(-n2nc(C)c([C@H]3C=C[C@@H](OC(=O)Nc4cccc(F)c4)C3)c2C)cc1       active
23  Cc1nn(-c2ccc(C(C)C)cc2)c(C)c1[C@@H]1C=C[C@@H](NC(=S)NCC(C)C)C1       active
24  Cc1nn(-c2cccc(Br)c2)c(C)c1[C@@H]1C=C[C@@H](NC(=O)CC2(CC(=O)O)CCCC2)C1     inactive
25  Cc1nn(-c2ccc(C(C)C)cc2)c(C)c1[C@@H]1C=C[C@@H](NC(=O)CC2(CC(=O)O)CCCC2)C1     inactive
26  COCc1nc(C2CCCN(C(=O)c3ccccn3)C2)no1 (stereo not given)     inactive
27  O=c1cc(N2CCOCC2)cnn1Cc1cc(C(F)(F)F)ccc1F     inactive
28  CCC(C)NC(=O)Cc1csc2nc(C)c(-c3cc(C)n(-c4ccc(C(C)C)cc4)n3)c(=O)n12 (stereo not given)     inactive
29  CCOC(=O)c1c(C)[nH]c(CCC(=O)NCCCN2CCN(c3cc(C)ccc3C)CC2)c1C       active
30  Cc1nn(-c2ccccc2)c(C)c1[C@@H]1C=C[C@@H](NC(=O)c2ccc3c(c2)OCO3)C1     inactive
